- assay.system: Orphan methyltransferase M.SssI (Spiroplasma monobiae, UniProt P15840)
- Sequence (P15840 whole entry): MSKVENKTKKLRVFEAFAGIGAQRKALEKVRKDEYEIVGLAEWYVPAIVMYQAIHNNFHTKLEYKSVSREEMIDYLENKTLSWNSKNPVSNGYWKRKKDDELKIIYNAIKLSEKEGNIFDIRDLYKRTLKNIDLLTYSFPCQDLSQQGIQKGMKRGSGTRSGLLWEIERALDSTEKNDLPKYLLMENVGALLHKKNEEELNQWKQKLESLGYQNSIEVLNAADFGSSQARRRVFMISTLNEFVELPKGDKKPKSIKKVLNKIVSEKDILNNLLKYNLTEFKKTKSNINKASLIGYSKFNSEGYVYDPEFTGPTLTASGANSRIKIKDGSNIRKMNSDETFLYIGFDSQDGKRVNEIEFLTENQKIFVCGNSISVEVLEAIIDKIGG
- experiment.description: Uncompetitive inhibition of Spiroplasma sp. MQ1 SssI methyltransferase using pUC18 as substrate measured for 10 mins by Cornish-Bowden's plot analysis
- Set-up: species or system Plasma
Parameter Ki: see the listing below.
Answer with a number only, understood to be in mM.

Take a look at these entries with their results.
C/C=N/c1cc[nH]c(=O)n1; 5.6
CC/C=N/c1cc[nH]c(=O)n1; 3.4

The compound identified as CCCCNc1ccnc(=O)[nH]1 registered its Ki at 1

Ki reading for CCC/C=N/c1cc[nH]c(=O)n1 : 0.8

get_value(item= CCNc1cc[nH]c(=O)n1 , readout=Ki) returns 6

====

- assay.system: Orphan methyltransferase M.SssI (Spiroplasma monobiae)
- experiment.description: Competitive inhibition of Spiroplasma sp. MQ1 SssI methyltransferase using pUC18 as substrate measured for 10 mins by Dixon plot analysis
# strict inequality: Ki < 30 µM yields Criterion met, everything else yields Criterion not met

Here's what some known entries look like.
Cc1ccc(CNc2cc[nH]c(=O)n2)cc1; Criterion met
CCCCNCc1c[nH]c(=O)nc1NCc1ccco1; Criterion not met
O=Cc1c[nH]c(=O)nc1NCc1ccco1; Criterion not met
O=c1ncc(CS(=O)(=O)O)c(NCc2ccccc2)[nH]1; Criterion not met
O=c1nc(NCc2ccco2)cc[nH]1; Criterion not met

**Q:** Field: below-cutoff. Rule: recorded Ki strictly less than 30 µM. Subject: O=Cc1cnc(=O)[nH]c1NCc1ccccc1
**A:** Criterion not met

**Q:** Here's an entry: Cc1ccc(S(=O)(=O)Nc2cc[nH]c(=O)n2)cc1 . Is its Ki below 30 µM?
**A:** Criterion not met

**Q:** Record O=C1N=C(NCc2ccccc2)NCN1 : is its Ki strictly below 30 µM?
**A:** Criterion met

====

- assay.system: Orphan methyltransferase M.SssI (Spiroplasma monobiae)
- experiment.description: Inhibition of Spiroplasma sp. MQ1 SssI methyltransferase-mediated DNA cytosine methylation using pUC18 as substrate and [3H]CH3-SAM measured up to 10 mins
outcome.measure: IC50 (nM)
Report as a plain number; the unit nM is understood.

The compound listed as O=C1N=C(NCc2ccco2)NCN1 has a reported IC50 of 2730

====

- assay.system: Orphan methyltransferase M.SssI (Spiroplasma monobiae)
- experiment.description: Competitive inhibition of Spiroplasma sp. MQ1 SssI methyltransferase using pUC18 as substrate measured for 10 mins by Dixon plot analysis
pKi: −log10 of the molar value.
Threshold rule: pKi greater than or equal to 4 is YES; below that, NO.

O=C(O)[C@H](Cc1c[nH]c2ccccc12)N1C(=O)c2ccccc2C1=O; YES
CC(=O)OCc1c[nH]c(=O)nc1NCc1ccccc1; YES
O=c1nc(NCc2ccc(CO)o2)cc[nH]1; NO

**Q:** Determine whether measured pKi meets or exceeds 4 for Nc1nc[nH]c(=O)n1
**A:** NO

**Q:** // inclusive: pKi at least 4? input: O=c1nc(NCc2ccco2)c(CO)c[nH]1
**A:** NO

**Q:** Kindly determine if pKi recorded for O=C(O[C@@H]1Cc2c(O)cc(O)cc2O[C@@H]1c1cc(O)c(O)c(O)c1)c1cc(O)c(O)c(O)c1 [EPIGALOCATECHIN GALLATE] is above or exactly 4.
**A:** YES

**Q:** Is reported pKi greater than or equal to 4 here: O=c1nc(NCc2ccccc2)c(CO)c[nH]1
**A:** NO

**Q:** Is pKi for O=c1nc(NCc2ccco2)ccn1[C@H]1C[C@H](O)[C@@H](CO)O1 at or above 4?
**A:** NO

**Q:** Reported pKi reaches at least 4 for CC(=O)OCc1c[nH]c(=O)nc1NCc1ccco1 ?
**A:** YES

**Q:** For this molecule, is measured pKi 4 or higher? Cc1c[nH]c(=O)nc1NCc1ccco1
**A:** YES
